MEASUREMENT TARGET: Virion infectivity factor (Human immunodeficiency virus type 1 group M subtype B (isolate BH10)) + Virion infectivity factor (Human immunodeficiency virus type 1 group M subtype B (isolate BRU/LAI)) + Virion infectivity factor (Human immunodeficiency virus type 1 group M subtype B (isolate PCV12)) + Virion infectivity factor (Human immunodeficiency virus type 1 group M subtype B (isolate HXB2)) + DNA dC->dU-editing enzyme APOBEC-3G (Homo sapiens) (UniProt P69720+P69721+P69722+P69723+Q9HC16)
ASSAY METHOD TEXT: inhibitors of Vif binding to APOBEC3G peptide, primary screen, biochemical, TR-FRET, GST-Vif 1-94, biotin-A3G peptide, dose response retest (AID 1117319);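 note: Vif residues 1-94 fused to GST binding biotinylated APOBEC3G peptide 110-148; 0% = full assay without inhibitor and 100% = GST in place of GST-Vif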
EXPERIMENTAL CONDITIONS: stronger effect = higher value
The campaign covered roughly 260,000 compounds. About 1,500 (0.58%) were called active. Inconclusive results (about 5%) are left out. The list is a sample of the results. Results with a measured potency or affinity are listed apart.
Field: inhibition. Provide a value for each of the compounds that follow.
Give bare numbers, in %.

Parameters: items (list). Returns: inhibition for each item.
1. Cc1nc(C(=O)O)nn1-c1cc(Cl)ccc1Cl
2. COc1ccc(CCNS(=O)(=O)CCNC(=O)c2ccccc2)cc1

Response:
[2.06, -6.03]

Parameters: items (list). Returns: inhibition for each item.
1. O=C(Nc1ccccc1N1CCOCC1)c1ccc2c(c1)OCCO2
2. Cc1ccc(OCCNC(=O)CNC(=O)c2ccccc2Cl)cc1
3. COC(=O)c1ccccc1NC(=O)c1noc2c1CC(C(C)(C)C)CC2 (stereo unspecified)
4. O=C(Nc1nc2ccccc2s1)c1ccc2c(c1)S(=O)(=O)c1ccccc1C2=O

Response:
1: -3.74; 2: -0.63; 3: -0.63; 4: 28.5

----------
Field: inhibition. Provide a value for each of the compounds that follow.
MEASUREMENT TARGET: Virion infectivity factor (Human immunodeficiency virus type 1 group M subtype B (isolate BH10)) + Virion infectivity factor (Human immunodeficiency virus type 1 group M subtype B (isolate BRU/LAI)) + Virion infectivity factor (Human immunodeficiency virus type 1 group M subtype B (isolate PCV12)) + Virion infectivity factor (Human immunodeficiency virus type 1 group M subtype B (isolate HXB2)) + DNA dC->dU-editing enzyme APOBEC-3G (Homo sapiens) (UniProt P69720+P69721+P69722+P69723+Q9HC16)
ASSAY METHOD TEXT: inhibitors of Vif binding to APOBEC3G peptide, primary screen, biochemical, TR-FRET, GST-Vif 1-94, biotin-A3G peptide, dose response retest (AID 1117319);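 note: Vif residues 1-94 fused to GST binding biotinylated APOBEC3G peptide 110-148; 0% = full assay without inhibitor and 100% = GST in place of GST-Vif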
EXPERIMENTAL CONDITIONS: stronger effect = higher value
The campaign covered roughly 260,000 compounds. About 1,500 (0.58%) were called active. Not shown: some 5% with an inconclusive outcome. Not all results are given here. Entries with a potency or affinity are not part of this list.
Numbers only, in %.

In [3]: df
Out[3]:
                                   compound  result_type  quantitative_result
0         CCOC(=O)c1coc(C(=O)OCC)c1C(=O)OCC   inhibition                -10.9
1                   Oc1ccccc1/C=N/Nc1ccccc1   inhibition                  3.4
2  COc1cc(/C=N/N=C(/C(=O)c2ccccc2)c2ccccc2)cc(OC)c1O   inhibition                 1.68

Parameters: items (list). Returns: inhibition for each item.
1. O=C(Nc1nnc(Cc2ccccc2)s1)C1CCC1
2. Cc1ccc(C(=O)NC(=S)Nc2ccc(S(=O)(=O)N3CCN(C)CC3)cc2)cc1
3. COCCN1CC(C(=O)NCc2ncccc2C)CCC1=O (stereo unspecified)

Response:
6.12
1.48
0.7

----------
Field: inhibition. Provide a value for each of the compounds that follow.
MEASUREMENT TARGET: Virion infectivity factor (Human immunodeficiency virus type 1 group M subtype B (isolate BH10)) + Virion infectivity factor (Human immunodeficiency virus type 1 group M subtype B (isolate BRU/LAI)) + Virion infectivity factor (Human immunodeficiency virus type 1 group M subtype B (isolate PCV12)) + Virion infectivity factor (Human immunodeficiency virus type 1 group M subtype B (isolate HXB2)) + DNA dC->dU-editing enzyme APOBEC-3G (Homo sapiens) (UniProt P69720+P69721+P69722+P69723+Q9HC16)
ASSAY METHOD TEXT: inhibitors of Vif binding to APOBEC3G peptide, primary screen, biochemical, TR-FRET, GST-Vif 1-94, biotin-A3G peptide, dose response retest (AID 1117319);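 note: Vif residues 1-94 fused to GST binding biotinylated APOBEC3G peptide 110-148; 0% = full assay without inhibitor and 100% = GST in place of GST-Vif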
EXPERIMENTAL CONDITIONS: stronger effect = higher value
The campaign covered roughly 260,000 compounds. About 1,500 (0.58%) were called active. Not shown: some 5% with an inconclusive outcome. A selection follows. Potency and affinity values are given separately.
Numbers only, in %.

Check out these entries, answers already filled in.
>>> df
                                   compound  quantitative_result
0         COc1ccc(Cl)cc1NC(=O)c1noc2c1CCCC2                -11.1
1  Cc1ccc(NC(=O)CSc2nnc(-c3ccco3)c(-c3ccco3)n2)cc1                 25.5
2  O=C1/C(=C/c2cccc(Br)c2)SC(=S)N1CCC(=O)N(CCO)c1ccccc1                -10.6
3        CC(=O)c1ccc(NC(=O)c2noc3c2CCC3)cc1                -4.79
4  CCOC(=O)c1c(C)nc(C)c(C(=O)OCC)c1-c1cccc(N)c1                -1.65

Parameters: items (list). Returns: inhibition for each item.
1. COc1cccc(NC(=O)CSc2nc(N)cc(N)n2)c1
2. CN(C)N1C(N)=C(C#N)C(c2cccc([N+](=O)[O-])c2)C2=C1CC(C)(C)CC2=O (centres undefined)
3. COc1cc(NC(=O)c2noc3c2CCCC3)c(OC)cc1Cl
4. Cc1ccc(C(=O)n2ncn(C)c2=S)cc1
5. CC(=O)c1ccc(NC(=O)CSc2ccc(-c3ccco3)nn2)cc1
6. O=C(CCN1C(=O)S/C(=C\c2cccs2)C1=O)NC1=NCCS1

Response:
1: 3.65; 2: -5.57; 3: 11.1; 4: -5.15; 5: -1.56; 6: 25.6

----------
MEASUREMENT TARGET: Virion infectivity factor (Human immunodeficiency virus type 1 group M subtype B (isolate BH10)) + Virion infectivity factor (Human immunodeficiency virus type 1 group M subtype B (isolate BRU/LAI)) + Virion infectivity factor (Human immunodeficiency virus type 1 group M subtype B (isolate PCV12)) + Virion infectivity factor (Human immunodeficiency virus type 1 group M subtype B (isolate HXB2)) + DNA dC->dU-editing enzyme APOBEC-3G (Homo sapiens) (UniProt P69720+P69721+P69722+P69723+Q9HC16)
ASSAY METHOD TEXT: inhibitors of Vif binding to APOBEC3G peptide, primary screen, biochemical, TR-FRET, GST-Vif 1-94, biotin-A3G peptide, dose response retest (AID 1117319);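 note: Vif residues 1-94 fused to GST binding biotinylated APOBEC3G peptide 110-148; 0% = full assay without inhibitor and 100% = GST in place of GST-Vif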
EXPERIMENTAL CONDITIONS: stronger effect = higher value
Out of some 260,000 compounds screened, about 1,500 (0.58%) were called active. Not shown: some 5% with an inconclusive outcome. A selection follows. Entries with a potency or affinity are not part of this list.
Field: inhibition. Provide a value for each of the compounds that follow.
Answers are plain numbers, in %.

Check out these entries, answers already filled in.
>>> print(df.to_string())
                                   compound  quantitative_result
0  C[C@@H]1NC(=O)[C@H](CC(N)=O)NC(=O)c2cc([N+](=O)[O-])cc(I)c2OCC[C@@H](C(=O)NC(CC(=O)O)C(N)=O)NC1=O (stereo partly drawn)                 10.6
1  O=C(CSc1nc2ccccc2n1Cc1ccccc1)N/N=C/c1ccccc1C(=O)O                -4.24
2  CCn1cc(S(=O)(=O)CC(=O)NC2CCCCC2)c2ccccc21                 -2.6

Parameters: items (list). Returns: inhibition for each item.
1. COc1ccccc1NC(=S)NCCSc1ccc(C)cc1
2. CCN1C(=O)/C(=C/N2CCc3ccccc32)SC1=S

Response:
1: 9.9; 2: 2.5

Parameters: items (list). Returns: inhibition for each item.
1. Cc1nnc(SCC(=O)NNC(=O)c2ccco2)n1-c1ccccc1
2. COC(=O)c1cc(NC(=O)COC(=O)CCc2c[nH]c3ccccc23)cc(C(=O)OC)c1

Response:
[6.15, 2.64]

Parameters: items (list). Returns: inhibition for each item.
1. O=C(Nc1ncn[nH]1)c1ccccc1O
2. COc1ccc(O)c(CN2CC3CCC(CC3)C2)c1
3. Cc1nn(CC#N)c(=O)n1-c1ccc(F)cc1
4. CC(=O)Nc1ccc(NC(=O)CN2CCN(c3ccccn3)CC2)cc1
5. O=C(Nc1ccc(NS(=O)(=O)c2ccccc2)cc1)c1ccccc1Cl
6. COC(=O)c1sc2nc(C)c([N+](=O)[O-])c(C)c2c1N
7. Oc1c(CN2CCOCC2)cc(-c2ccccc2)cc1CN1CCOCC1

Response:
[-9.78, 4.35, 0.42, -2.22, 9.4, 6.2, 2.33]

Parameters: items (list). Returns: inhibition for each item.
1. O=C(COC(=O)c1ccccn1)NCc1cccc(Cl)c1
2. O=C(CCOc1ccccc1)Nc1ccc([N+](=O)[O-])cc1
3. Cc1oc(-c2ccccc2F)nc1CS(=O)(=O)CC(=O)N1CCN(Cc2ccccc2)CC1
4. Cc1cccc(N2CC(C(=O)O)CC2=O)c1 (stereo not drawn)
5. CC1(C)CC(=O)C(N=Nc2ccc(OC(F)F)cc2)=C(O)C1
6. COc1cccc(CN2CCC(n3nccc3NC(=O)C3CC3)CC2)c1

Response:
[11.7, 5.33, 5.89, -2.42, 12.4, 3.21]
